# reported kon; entries follow
# tgt: T1, mouse PCSK9 (mouse, UniProt Q80W65 35-694, limits assumed)
# T1 construct: also called mPCSK9; PCSK9 mouse
# assay-name: ProteOn SPR, captured antibody, pH 5.8;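 note: antibodies captured on a GLC chip coated with anti-human Fc, rate constants from a 1:1 Langmuir fit of the sensorgrams, Kd derived from the fitted rates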
Write the value in M⁻¹ s⁻¹ as a bare number.

Answered examples (2):
[
  {
    "binder": "CL-148219 (antibody, V domains shown, NLT motif in heavy chain framework 3 confirmed N-glycosylated by mass spectrometry, Human antibody, captured through anti-human Fc in the SPR assay) VH: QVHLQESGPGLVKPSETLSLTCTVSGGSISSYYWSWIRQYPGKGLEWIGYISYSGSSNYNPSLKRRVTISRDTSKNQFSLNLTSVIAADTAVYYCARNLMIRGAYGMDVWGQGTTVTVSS VL: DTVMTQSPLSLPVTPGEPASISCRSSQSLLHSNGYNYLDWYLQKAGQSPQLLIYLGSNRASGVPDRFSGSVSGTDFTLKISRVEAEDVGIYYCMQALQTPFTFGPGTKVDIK",
    "assay-value": "1.01e+06"
  },
  {
    "binder": "CL-148219 QLT mutant (antibody, V domains shown) VH: QVHLQESGPGLVKPSETLSLTCTVSGGSISSYYWSWIRQYPGKGLEWIGYISYSGSSNYNPSLKRRVTISRDTSKNQFSLQLTSVIAADTAVYYCARNLMIRGAYGMDVWGQGTTVTVSS VL: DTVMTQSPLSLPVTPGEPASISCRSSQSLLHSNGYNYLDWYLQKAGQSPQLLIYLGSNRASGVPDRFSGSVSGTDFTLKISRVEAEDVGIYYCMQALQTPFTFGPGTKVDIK",
    "assay-value": 472000
  }
]

# context switch: different binder, same kon
Identify measured kon associated with CL-274698 (antibody, V domains shown, Human antibody with a kappa light chain, derived from a PCSK9 knockout mouse) VH: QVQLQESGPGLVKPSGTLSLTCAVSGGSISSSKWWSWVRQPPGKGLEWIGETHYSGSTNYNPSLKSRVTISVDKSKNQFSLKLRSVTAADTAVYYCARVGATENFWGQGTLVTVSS VL: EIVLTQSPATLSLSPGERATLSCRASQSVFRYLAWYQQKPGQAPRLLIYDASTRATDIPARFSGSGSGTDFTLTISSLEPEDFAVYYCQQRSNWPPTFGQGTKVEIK
1.33e+06

From: patent US20220049017A1
